signal enhancement by entry:
biological target: E3 ubiquitin-protein ligase Mdm2 (Homo sapiens) (UniProt Q00987); experiment: increase of MDM2 autoubiquitination reporter luminescence – cell-based, 1536-well, MDM2 E3 ligase inhibitor project, primary screen (AID 1230); conditions: cell-based MDM2 ubiquitination luciferase reporter, 2 h; at 5 µM; hits give high values; 0 = plate control, 100 = twice control, blank-subtracted;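 also: luminescence tracks abundance of the self-degrading MDM2-luciferase fusion protein; higher signal means inhibition of MDM2 E3 ligase activity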
Sequence (Q00987 whole entry, looked up, the tested form may be a part): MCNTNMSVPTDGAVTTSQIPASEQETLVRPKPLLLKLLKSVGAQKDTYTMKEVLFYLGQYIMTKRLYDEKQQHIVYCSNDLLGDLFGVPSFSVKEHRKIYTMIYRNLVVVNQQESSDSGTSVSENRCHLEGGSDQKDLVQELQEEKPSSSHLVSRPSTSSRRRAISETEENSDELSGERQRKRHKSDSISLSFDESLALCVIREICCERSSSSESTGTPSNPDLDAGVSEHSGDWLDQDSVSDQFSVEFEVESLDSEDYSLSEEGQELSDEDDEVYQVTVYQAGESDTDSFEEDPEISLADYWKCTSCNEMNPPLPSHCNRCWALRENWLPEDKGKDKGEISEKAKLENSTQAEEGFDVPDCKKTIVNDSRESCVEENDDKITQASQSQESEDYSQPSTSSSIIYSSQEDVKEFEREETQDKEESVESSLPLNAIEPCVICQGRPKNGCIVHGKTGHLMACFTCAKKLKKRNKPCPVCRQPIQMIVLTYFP
About 220 (0.1%) of roughly 210,000 compounds were called active. For the sample, actives were picked, then their nearest neighbours and some compounds at random.
endpoint: signal enhancement (%)

>>> result_value("COc1ccccc1NC(=O)c1cc(Cl)nc2ccccc12")
-12.4
>>> result_value("O=C1NC[C@@H](Cc2ccc(O)cc2)N(CCc2cccc(F)c2)C1=O")
10.9
>>> result_value("COc1cc(OC)c2ccc(=O)oc2c1C(CCN1CCN(c2ccccc2)CC1)c1ccc2c(c1)OCO2 (centres undefined)")
6.23
>>> result_value("O=C(Nc1ccc(F)cc1)c1cc2c(s1)CCCC2")
-16.8
>>> result_value("COc1ccc(Cc2cc(-c3ccc(F)cc3)n[nH]c2=O)cc1")
-10.5
>>> result_value("CCCN(CCC)c1ccc(C(O)c2nnc(-c3ccccc3)o2)cc1 (centres undefined)")
-18.3
>>> result_value("COc1ccc(NC2=CC(=S)NC(C)(C)C2)cc1")
-2.53
>>> result_value("Cn1cccc1/C=N/NC(=O)CNc1cccc2ccccc12")
-9.96
>>> result_value("O=C(Nc1cccc(Cl)c1)Nc1nnc(-c2ccccc2)o1")
-7.54
>>> result_value("COc1ccc(CNC(=O)C(Cc2ccccc2)n2cccc2)cc1 (centres undefined)")
-4.92
>>> result_value("CC(=O)N(OCc1ccc(OC(C)C)c(Cl)c1)C(C)=O")
-12.5
>>> result_value("c1csc(-c2nnc(COc3ncnc4sccc34)o2)c1")
-10.9
>>> result_value("OC(c1nnc(-c2ccccc2)o1)c1cccs1 (centres undefined)")
31.9
>>> result_value("N#CC1=C(N)Oc2c(ccc3cccnc23)C1c1ccncc1 (centres undefined)")
-12.4
>>> result_value("O=C(CSc1nnnn1-c1ccc(O)cc1)c1ccc(F)cc1")
-12.1
>>> result_value("COc1cc(C=O)ccc1Oc1nnnn1-c1ccccc1")
-12.6
>>> result_value("Cc1c(C(=O)N(Cc2ccccc2)Cc2cccnc2)cnn1-c1ccc(F)cc1")
-11.7
>>> result_value("O=C(CCCCCN1C(=O)c2cccc3cccc(c23)C1=O)NCc1ccco1")
-8.79
>>> result_value("Cc1nc(-c2ccccc2)sc1-c1nnc(C2CC2)o1")
-9.04
>>> result_value("C=CCC1(C#N)C(=S)NC(C)=C(C(=O)OCC)C1c1ccccc1 (centres undefined)")
9.19
>>> result_value("CCCSc1ncccc1C(=O)O")
-7.45
>>> result_value("O=C(CCl)Nc1cccc(CP(=O)(c2ccccc2)c2ccccc2)c1")
-14.8
>>> result_value("Cn1cnc([N+](=O)[O-])c1Sc1n[nH]c(N)n1")
-5.56
>>> result_value("CCNc1nc(NCC)nc(N/N=C/c2ccc(O)c(OC)c2)n1")
-10
